target: hypoxanthine phosphoribosyltransferase (Trypanosoma cruzi); assay: Kinetic inhibition constant of compound with Trypanosoma cruzi Hypoxanthine Phosphoribosyltransferase (HPRT)
measured attribute: pKi
Lab note — pKi values are minus log10 of concentrations in M.

# annotated cases, reported pKi shown
| compound | target or test system | measured attribute | assay value |
| --- | --- | --- | --- |
| O=C(Nc1cc2c3ccccc3ccc2c2ccccc12)C(Cl)Cl [2,2-Dichloro-N-chrysen-6-yl-acetamide] | hypoxanthine phosphoribosyltransferase (Trypanosoma cruzi) | pKi | 6.30 |
| O=[N+]([O-])c1cc2c3ccccc3ccc2c2ccccc12 | hypoxanthine phosphoribosyltransferase (Trypanosoma cruzi) | pKi | 5.17 |
| Nc1cc2c3ccccc3ccc2c2ccccc12 | hypoxanthine phosphoribosyltransferase (Trypanosoma cruzi) | pKi | 6.22 |

Proceeding to the next compound to report its pKi.
Which pKi value belongs to Fc1cc2c3ccccc3ccc2c2ccccc12 ?
5.55
